tested on: HL-60(TB) leukemia; experiment: NCI tumour cell line growth inhibition, 48 h
Documented TGI across a set of compounds

Below: 3 compounds and their reported TGI.
> print(dat)
                                   compound    reading
1          c1ccc2[nH]c(-c3nc4ccccc4o3)nc2c1   > 100 µM
2        CCOC(=O)NNC(=O)NCCNC(=O)NNC(=O)OCC   > 100 µM
3  CS(=O)(=O)c1nccc(-c2c(-c3cccc(OCc4ccc(F)cc4)c3)nc3sccn23)n1  > 29.3 µM

Fill blank: measured TGI of the compound `CCc1nc2c(O)ccc(O)c2nc1C` is ____.
> 21.7 µM

Any idea what TGI was measured for `O=C(O)CSc1n[nH]c(/C=C/c2ccccc2)n1` ?
> 100 µM

Can you look up the measured TGI of `[Cu+2].[Cu+2].[O-]c1ccccc1C=Nc1ccccc1[O-].[O-]c1ccccc1C=Nc1ccccc1[O-]` for me?
7.24 µM

Which measured TGI value corresponds to `O=C(NCCNCCO)N/N=C/c1cccc([N+](=O)[O-])c1` ?
> 100 µM

Query: TGI; subject: `COC(=O)c1cnc2nc(N3CCOCC3)[nH]n2c1=O`
> 100 µM

Give its TGI value. Item: `COC(=O)N1[C@H]2Cc3c(OC)c(C)c(OC)c(OC)c3[C@@H]1/C(=C\c1cc(OC)c(OC)c(C)c1OC)N(Cc1ccccc1)C2=O`
30.2 µM

Return reported TGI; argument: COC(=O)C1Cc2c(C)cccc2C1=O (stereo unspecified)
77.8 µM

# input compound: `N#Cc1[nH]c(=O)n(-c2ccc([N+](=O)[O-])cc2)c1N` ; wanted: its TGI
> 10 µM
